# TARGET OR SYSTEM: DYRK1B (human)
# EXPERIMENT DESCRIPTION: KINOMEscan competition binding
# CONDITION CONTEXT: compound 10.0 µM
We label by threshold. Values of kinase still bound, per cent of control strictly beneath 90% are y. Values of 90% and up are n.

Look over these answered cases.
COc1cc2c(Nc3ccc(NC(=O)c4ccccc4)cc3)ncnc2cc1OCCCN1CCOCC1    n
CCN1CCN(Cc2ccc(NC(=O)c3ccc(C)c(/C=C/c4cnc5[nH]ccc5c4OC)c3)cc2C(F)(F)F)CC1    y
CC(=O)c1c(C)c2cnc(Nc3ccc(N4CCNCC4)cn3)nc2n(C2CCCC2)c1=O    y
CCN(CCO)CCCOc1ccc2c(Nc3cc(CC(=O)Nc4cccc(F)c4)[nH]n3)ncnc2c1    y
C=CC(=O)Nc1ccc(C(=O)c2sc(Nc3ccc(N4CCN(C)CC4)cc3OC)nc2N)cc1    y
CCCS(=O)(=O)Nc1ccc(F)c(C(=O)c2c[nH]c3ncc(Cl)cc23)c1F    y

// query Find out if reported kinase still bound, per cent of control for "Cc1cn(-c2cc(C(=O)Nc3ccc(C)c(NC(=O)c4ccno4)c3)cc(C(F)(F)F)c2)cn1" is less than 90%
// result n

// query Query "COc1cc(N2CCC(C(N)=O)CC2)ccc1Nc1nc(N)c(Cl)c(Nc2ccccc2S(=O)(=O)C(C)C)n1" next
// result n

// query Query "COc1ccc(N(C(=O)Oc2cc(C(=O)Nc3cccc(C(F)(F)F)c3)ccc2C)c2ccnc(Nc3ccc(N4CCN(C)CC4)cc3)n2)c(OC)c1" next
// result n

// query Query COc1cc(C)c(Sc2cnc(NC(=O)c3ccc(CNC(C)C(C)C)cc3)s2)cc1C(=O)N1CCN(C(C)=O)CC1 (stereo not drawn) next
// result n

// query Query "N#C/C(=C1/Nc2ccccc2S1)c1ccnc(NCCc2cccnc2)n1" next
// result y
